Reference source: ChEMBL document CHEMBL4043181

# Tgt: Solute carrier family 22 member 3 (Homo sapiens)
# Sequence (O75751 whole entry): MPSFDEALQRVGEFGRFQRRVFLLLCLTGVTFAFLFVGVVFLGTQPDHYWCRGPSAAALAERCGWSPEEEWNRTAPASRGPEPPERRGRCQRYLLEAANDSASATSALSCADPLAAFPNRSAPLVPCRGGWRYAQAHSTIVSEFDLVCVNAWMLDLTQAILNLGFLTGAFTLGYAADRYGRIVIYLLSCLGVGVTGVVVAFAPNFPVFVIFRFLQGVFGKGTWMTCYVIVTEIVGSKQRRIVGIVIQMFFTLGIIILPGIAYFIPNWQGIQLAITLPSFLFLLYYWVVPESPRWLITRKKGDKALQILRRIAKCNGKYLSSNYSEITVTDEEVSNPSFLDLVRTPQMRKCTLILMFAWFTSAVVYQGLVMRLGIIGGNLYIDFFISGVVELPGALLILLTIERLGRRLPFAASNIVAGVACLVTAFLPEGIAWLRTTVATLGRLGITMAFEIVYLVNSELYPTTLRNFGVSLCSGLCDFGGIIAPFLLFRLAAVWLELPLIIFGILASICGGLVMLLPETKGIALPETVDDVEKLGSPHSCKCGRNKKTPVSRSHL
# Experiment Description: Inhibition of OCT3 (unknown origin)
Property Name: IC50

Form field: reported IC50 of N=C(N)N
2.2 to 6.2 mM

---

# Tgt: Solute carrier family 22 member 2 (Homo sapiens)
# Experiment Description: Inhibition of human OCT2 expressed in HEK293 cells assessed as decrease in uptake of substrate [3H]MPP+ after 1 min by liquid scintillation counting method
Property Name: IC50 (µM)
The figure you give is taken to be in µM; do not add the unit.

| Compound | Tgt | Property Name | Value Reported |
| --- | --- | --- | --- |
| Cc1ccc(NC(=N)N)cc1 | Solute carrier family 22 member 2 (Homo sapiens) | IC50 | 9.3 |
| N=C(N)Nc1ccccc1 [PHENYLGUANIDINE] | Solute carrier family 22 member 2 (Homo sapiens) | IC50 | 89 |
| N=C(N)Nc1ccc(Br)cc1 | Solute carrier family 22 member 2 (Homo sapiens) | IC50 | 11.3 |

Return reported IC50; argument: N=C(N)Nc1ccc(F)cc1
48.3

Next entry: CC(C)(C)c1ccc(N=C(N)N)cc1
8.3

Repeat with NC(N)=Nc1cccc(Cl)c1
60.5

---

# Tgt: Solute carrier family 22 member 3 (Homo sapiens)
# Experiment Description: Inhibition of human OCT3 expressed in HEK293 cells assessed as decrease in uptake of substrate [3H]MPP+ after 1 min by liquid scintillation counting method
# Format: cell-based
Please respond with label 1 when measured IC50 is strictly beneath 5 µM, and with label 0 in all other cases.

| Compound | Class |
| --- | --- |
| Cc1ccc(NC(=N)N)cc1 | label 1 |
| N=C(N)Nc1ccc(Br)cc1 | label 1 |
| NC(N)=Nc1cccc(Cl)c1 | label 0 |

Here's an entry: N=C(N)Nc1ccccc1 [PHENYLGUANIDINE] . Is its IC50 below 5 µM?
label 0

And for CC(C)(C)c1ccc(N=C(N)N)cc1 ?
label 1

Field entry: N=C(N)Nc1ccc(F)cc1
label 0

// same read-out, input: NC(N)=Nc1ccc(I)cc1
label 1

Try the compound N=C(N)Nc1ccc(Cl)cc1
label 1

And what about the compound N=C(N)Nc1ccc(Cc2ccccc2)cc1 ?
label 0

---

# Tgt: Solute carrier family 22 member 1 (Homo sapiens, UniProt O15245)
# Sequence (O15245 whole entry): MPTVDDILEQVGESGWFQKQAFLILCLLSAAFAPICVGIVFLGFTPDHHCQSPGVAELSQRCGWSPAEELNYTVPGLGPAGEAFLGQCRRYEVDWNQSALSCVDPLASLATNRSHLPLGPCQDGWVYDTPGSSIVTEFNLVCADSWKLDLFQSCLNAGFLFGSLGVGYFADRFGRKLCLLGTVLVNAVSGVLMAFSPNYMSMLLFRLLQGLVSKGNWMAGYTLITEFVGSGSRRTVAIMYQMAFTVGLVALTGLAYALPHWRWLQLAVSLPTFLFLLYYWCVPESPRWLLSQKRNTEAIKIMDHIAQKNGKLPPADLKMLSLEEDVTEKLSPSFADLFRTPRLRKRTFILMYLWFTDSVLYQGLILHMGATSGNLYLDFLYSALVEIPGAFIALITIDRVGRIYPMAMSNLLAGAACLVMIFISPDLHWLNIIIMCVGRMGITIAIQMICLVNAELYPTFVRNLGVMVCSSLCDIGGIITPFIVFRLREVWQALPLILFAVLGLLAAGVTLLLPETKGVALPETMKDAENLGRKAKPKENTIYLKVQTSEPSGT
# Experiment Description: Inhibition of human OCT1 expressed in HEK293 cells assessed as decrease in uptake of substrate [3H]MPP+ after 1 min by liquid scintillation counting method
Flag rule - IC50 less than 10 µM flags met; the remaining entries get not met.

Record excerpt, results attached:
| Line Notation | Tgt | Class |
| --- | --- | --- |
| N=C(N)Nc1ccc(F)cc1 | Solute carrier family 22 member 1 (Homo sapiens, UniProt O15245) | not met |
| N=C(N)Nc1ccc(Br)cc1 | Solute carrier family 22 member 1 (Homo sapiens, UniProt O15245) | met |
| N=C(N)Nc1ccc(Cc2ccccc2)cc1 | Solute carrier family 22 member 1 (Homo sapiens, UniProt O15245) | not met |

Below: the item to evaluate.
Strictly below 10 µM in IC50? CC(C)(C)c1ccc(N=C(N)N)cc1
met

---

# Tgt: Solute carrier family 22 member 2 (Homo sapiens, UniProt O15244)
# Sequence (O15244 whole entry): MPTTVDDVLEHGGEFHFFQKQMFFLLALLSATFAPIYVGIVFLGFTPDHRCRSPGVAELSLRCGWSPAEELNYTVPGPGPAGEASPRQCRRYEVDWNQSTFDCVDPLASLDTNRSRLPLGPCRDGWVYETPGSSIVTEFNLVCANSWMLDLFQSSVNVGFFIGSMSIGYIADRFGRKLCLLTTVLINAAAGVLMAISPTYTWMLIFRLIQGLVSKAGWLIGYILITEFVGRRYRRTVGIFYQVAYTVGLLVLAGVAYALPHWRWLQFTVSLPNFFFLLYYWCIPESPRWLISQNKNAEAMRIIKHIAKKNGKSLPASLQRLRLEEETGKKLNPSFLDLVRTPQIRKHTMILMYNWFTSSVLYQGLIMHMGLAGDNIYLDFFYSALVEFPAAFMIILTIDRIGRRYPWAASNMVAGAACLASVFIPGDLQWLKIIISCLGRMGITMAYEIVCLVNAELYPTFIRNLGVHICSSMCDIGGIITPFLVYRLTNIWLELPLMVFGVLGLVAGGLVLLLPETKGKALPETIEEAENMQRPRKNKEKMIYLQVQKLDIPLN
# Experiment Description: Inhibition of human OCT2 expressed in HEK293 cells assessed as decrease in uptake of substrate [3H]MPP+ after 1 min by liquid scintillation counting method
Parameter: IC50. Scope: all listed entries.
I'd appreciate it if you included the unit after the number.

| Line Notation | Property Name | Value Reported |
| --- | --- | --- |
| N=C(N)Nc1ccc(Cc2ccccc2)cc1 | IC50 | 96.2 µM |
| N=C(N)Nc1ccc(Cl)cc1 | IC50 | 18.9 µM |

Let's switch to this compound now.
Item NC(N)=Nc1ccc(I)cc1 has what recorded IC50?
4.4 µM

---

# Tgt: Solute carrier family 22 member 1 (Homo sapiens, UniProt O15245)
# Sequence (O15245 whole entry): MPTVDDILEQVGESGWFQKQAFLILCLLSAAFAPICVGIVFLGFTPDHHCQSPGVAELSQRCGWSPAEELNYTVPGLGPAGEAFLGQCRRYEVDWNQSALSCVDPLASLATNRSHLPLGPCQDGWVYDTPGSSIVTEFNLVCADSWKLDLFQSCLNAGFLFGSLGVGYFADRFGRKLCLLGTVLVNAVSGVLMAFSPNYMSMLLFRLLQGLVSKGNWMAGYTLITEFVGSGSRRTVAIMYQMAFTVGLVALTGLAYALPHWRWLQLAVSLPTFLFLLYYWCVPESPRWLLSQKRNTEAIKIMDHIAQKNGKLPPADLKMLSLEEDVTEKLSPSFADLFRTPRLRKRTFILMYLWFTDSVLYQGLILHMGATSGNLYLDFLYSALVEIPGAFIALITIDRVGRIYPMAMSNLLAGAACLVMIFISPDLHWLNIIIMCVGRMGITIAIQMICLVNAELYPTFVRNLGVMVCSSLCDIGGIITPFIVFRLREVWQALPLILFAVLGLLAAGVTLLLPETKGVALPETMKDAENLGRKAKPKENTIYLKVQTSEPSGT
# Experiment Description: Inhibition of human OCT1 expressed in HEK293 cells assessed as decrease in uptake of substrate [3H]MPP+ after 1 min by liquid scintillation counting method
Listing: IC50 of selected compounds
Answer with the value and then the unit.

| Line Notation | Value Reported |
| --- | --- |
| N=C(N)Nc1ccc(Cl)cc1 | 10 µM |

Enter reported IC50 observed with Solute carrier family 22 member 1 (Homo sapiens, UniProt O15245) for Cc1ccc(NC(=N)N)cc1
10 µM

// same read-out, input: NC(N)=Nc1ccc(I)cc1
2.4 µM

And what about the compound NC(N)=Nc1cccc(Cl)c1 ?
13.7 µM

Now try N=C(N)Nc1ccccc1 .
41.1 µM
